Source listed as paper PMC5974403.

Experiment: BBB crossing assay: brain and plasma concentrations by LC-MS/MS after oral administration
Assay type: in vivo, rat
Conditions: SD, rat, brain; rats, PO 50 mg/kg, 3 h; read-out: Brain concentration
endpoint: concentration at 3 h

Q) Looking for the measured concentration at 3 h of O=C(NO)c1ccc(CNc2cccc3cccnc23)cc1 , can you help?
A) 11 ng/g

---

Assay: BBB crossing assay: brain and plasma concentrations by LC-MS/MS after oral administration
Format: in vivo, rat
Details: SD, rat, plasma; rats, PO 50 mg/kg, 3 h; read-out: Plasma concentration
endpoint: concentration at 3 h (ng/g)
# value in ng/g; strip the unit string

Q) Looking for the measured concentration at 3 h of O=C(NO)c1ccc(CNc2cccc3cccnc23)cc1 [MPT0G211] , can you help?
A) 12.2
